PROCEDURE_SUMMARY: Biodistribution in tumor of TA2 mouse bearing MA891 xenograft after 30 mins
Assay type: ADME, organism-based
CONDITION_DESCRIPTION: read-out: Drug uptake
READOUT_KIND: tissue uptake at 0.5 h (%ID/g)

COMPOUND: CSCC(=O)NC1[C@H](O)O[C@H](CO)[C@@H](O)[C@@H]1O (stereo partly specified)
REPORTED: 1.53

---

PROCEDURE_SUMMARY: Ratio of uptake in tumor to blood of TA2 mouse bearing MA891 xenograft after 2 hrs
Assay type: ADME

MOLECULE: CSCC(=O)NC1[C@H](O)O[C@H](CO)[C@@H](O)[C@@H]1O (stereo partly specified)
Kp at 2 h: 0.59
